- Assay Comment: RPL19A-GFP modulators, yeast TOR pathway, confirmation, cell-based, S. cerevisiae, flow cytometry, cherry picks, mother/daughter gates (AID 2270)
- Experimental Parameters: S. cerevisiae RPL19A-GFP strain, 3 h, measured here: mother cell gate, at 10 µM, stronger effect = lower value, 100 = same GFP as DMSO wells
Kindly state GFP response vs DMSO for each of the entries shown.
One number for each entry, in %.

Solved entries (count: 2):
Compound | Reading Unit | Value
Cc1cccc(NC(=O)CC2SC(=O)N(c3ccccc3)C2=O)c1 (centres undefined) | % | 93
Cc1ccc(N2CC(C(=O)OCc3nnc(-c4ccccc4)o3)CC2=O)cc1 (centres undefined) | % | 101

For each of the compounds below, state GFP response vs DMSO.
1. CN(O)/C=c1/ccc2c(n1)C(=O)C=CC=2
2. Cc1ccc(NC(=S)c2nc3ccccc3[nH]2)cc1
3. COc1ccc(N(CC(=O)N/N=C/c2cc(OC)ccc2OC)S(=O)(=O)c2ccccc2)cc1
4. CCOC(=O)C1C(=O)C=C(c2ccc(C)cc2)CC1c1ccco1 (centres undefined)

1. 100
2. 99.3
3. 86.9
4. 101

Dear reader, for each entry below, please note its GFP response vs DMSO.
1. O=C(Nc1nnc(-c2ccccc2Cl)o1)c1ccc(S(=O)(=O)N2CCCCCC2)cc1
2. Cc1ccc(CS(=O)(=O)c2ncc(Cl)c(C(=O)Nc3nnc(C(C)C)s3)n2)cc1
3. O=C(Cc1ccc(Cl)cc1)NNC(=S)NC(=O)c1cccs1
4. CCCC(=O)Nc1ccc(C(=O)/C=C/c2ccc(SC)cc2)cc1
5. Cc1cc(-c2csc3nc[nH]c(=S)c23)cc(C)c1C
6. COc1ccccc1C(=O)N1CCN(c2cccc(Cl)c2)CC1

1. 99.8
2. 94
3. 104
4. 99.2
5. 95
6. 95.8

Below is a list of compounds. For each, state its recorded GFP response vs DMSO.
1. CCCCn1c(=O)c(C(=O)OCC)c(O)c2ccccc21
2. O=C(Sc1cccc2cccnc12)c1ccccc1Br
3. CCCCCn1c(=O)c(C(=O)OCC)c(O)c2ccccc21
4. Cc1cc(NC(=O)c2cncc(Br)c2)ccc1NC(=O)c1cc2ccccc2o1

[108, 98.5, 99.7, 104]

// input: 7 compounds below; output: GFP response vs DMSO for each
1. COc1cc(NC(=O)c2ccc(C)cc2)ccc1NC(=O)c1cc2ccccc2o1
2. CC(C)C(=O)NC(c1cccs1)c1cc([N+](=O)[O-])c2cccnc2c1O (centres undefined)
3. COc1cccc(/C(C)=N/NC(=O)c2ccc(N(C)C)cc2)c1
4. Cc1ccc(C(=O)c2c3ccccc3[n+]([O-])n2CCC(=O)O)cc1
5. O=[N+]([O-])c1cc(/C=N/O)ccc1Oc1ccccc1Cl
6. OC1(c2ccc(F)cc2)CSC(=Nc2cccnc2)N1Cc1ccco1 (centres undefined)
7. O=C(CN1C(=O)c2cccc3cccc(c23)C1=O)N1CCCCCC1

85.2
95.8
99.7
63.3
70.2
98.7
101

---

- Assay Comment: AGP1-GFP expression modulators, hit retest, confirmation, cell-based, flow cytometry, S. cerevisiae, cherry picks (AID 2273);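 further: median GFP channel fluorescence over the whole cell population gate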
- Experimental Parameters: S. cerevisiae AGP1-GFP strain, 3 h, at 10 µM
What GFP response, % of DMSO was measured for each of the following?
Answers are plain numbers, in %.

Known results for molecules:
Molecule | GFP response, % of DMSO, %
Cc1ccc(C(C[N+](=O)[O-])Sc2ccc(N)cc2)cc1 (configuration not stated) | 89.6
CCOC(=O)Cc1csc(NC(=O)CCCCCN2C(=O)c3cccc4cccc(c34)C2=O)n1 | 98.2
Cc1ccc2c(nc3s/c(=C\c4ccc(-c5ccccc5C(=O)O)o4)c(=O)n32)c1C | 119
COc1cccc(C(=O)C(C#N)=C(SC)SC)c1 | 95.7
Cc1nc(Sc2ccc(Br)cc2)c(C#N)c(C)c1[N+](=O)[O-] | 96.1
O=C(Nc1c(-c2ccccc2)nc2ccccn12)c1ccco1 | 98.9
CCCCNC(=O)c1ccc2c(SCC(=O)O)c3c(nc2c1)CCCC3 | 98
O=C(/C(=C/c1ccccc1)n1cncn1)c1ccc(Cl)cc1Cl | 106
Cc1cccc(C)c1NC(=O)C(Cl)C(=O)c1ccccc1 (configuration not stated) | 101
Cc1cccc2c1NC(=O)/C2=C\C(=O)c1cccs1 | 107

Your task in this section: give GFP response, % of DMSO for each listed record.
1. COc1ccc(-c2nnc(NC(=O)c3ccc([N+](=O)[O-])o3)o2)c(OC)c1
2. O=C(COC(=O)c1n[nH]c2ccccc12)c1cc(F)ccc1F
3. CC(=O)Nc1ccc(S(=O)(=O)NC(CC(=O)NCCC2=CCCCC2)C(C)C)cc1 (configuration not stated)
4. CCc1oc2ccccc2c1C(=O)CCN1CCCCC1
5. Cc1ccc(CCN2CC(C(=O)NCCCN(C)Cc3ccccc3)CC2=O)cc1 (configuration not stated)
6. CCOc1ccc(N2C(=O)CC(Sc3nccc(C)n3)C2=O)cc1 (configuration not stated)
7. C/C(CCC12CC3CC(CC(C3)C1)C2)=N\NC(N)=S

98
97.6
101
101
103
102
96
